# Tested on: RXF 393
# TEST: NCI tumour cell line growth inhibition, 48 h
Activity calls are given as the source filed them. No stated cut-off is given here; in the data, active = GI50 up to about 1.1 µM and inactive = higher.
MEASURED QUANTITY: GI50

Example entries and their recorded answers appear below.
>>> print(df.to_string())
                                   molecule  measured_quantity             observed
0  NC(CCCCNC(=O)OCc1ccccc1)C(=O)NC(CCCCNC(=O)OCc1ccccc1)C(=O)ON1C(=O)CCC1=O (stereo not drawn)               GI50   52.7 µM (inactive)
1  COC(=O)c1cc(C)ccc1/C=C1\Cc2c(C)cc(C)cc2C1=O               GI50   16.1 µM (inactive)
2                         Oc1ccc[nH]c1=[Se]               GI50  > 100 µM (inactive)

-- ask Entry "C=C1c2nc3ccccc3n2C=C(c2ccccc2)N1c1ccc(C)cc1" has what GI50?
-- reply 59.6 µM (inactive)

-- ask Proceed to "COc1cc(/C=C2\N=C(c3ccccc3)N(c3ccc4c(c3)Sc3cc(N5C(=O)/C(=C/c6cc(OC)c(OC)c(OC)c6)N=C5c5ccccc5)ccc3N4)C2=O)cc(OC)c1OC"
-- reply 20.7 µM (inactive)

-- ask Please give the result for Fc1ccc2c(c1)nc1n2C(c2c(F)cccc2F)SC1 (stereo not drawn) too.
-- reply 62.2 µM (inactive)

-- ask How about this molecule: "CC(C)C(=O)/C=C/c1ccc(Cl)cc1"
-- reply 17.6 µM (inactive)

----------
The entries below come with measured GI50 values attached.
# System: LOX IMVI
# TEST: NCI tumour cell line growth inhibition, 48 h
The source made the active and inactive calls. Rule as the data show it: active = GI50 up to about 1.1 µM and inactive = higher.

Example entries begin here.
>>> print(df.to_string())
                                   compound             observed
0  COc1ccc(C[C@]23CCC(=O)N2CCc2cc(OC)c(O)cc23)cc1O  > 100 µM (inactive)
1  CCOC(=O)C1C(C)C2(C#N)C(=N)OC1(C)C2(C#N)C#N (configuration not stated)   26.8 µM (inactive)
2  Cc1nc(=O)[nH]c(NCCNCCO)c1C(=O)Nc1cccc2cc3ccccc3cc12  > 100 µM (inactive)

With those in mind, consider the next compound.
-- ask Would you kindly share the measured GI50 for "C/C(=N\NC(=S)N1CCN(c2ccccn2)CC1)c1cccc2cccnc12" ?
-- reply 3.59 µM (inactive)

----------
# System: SK-OV-3
# TEST: NCI tumour cell line growth inhibition, 48 h
Activity calls are given as the source filed them. Cut-off read from the data, not from the text of the source: active = GI50 up to about 1.1 µM and inactive = higher.
Tick one outcome: active, inactive

>>> df
                                   compound  assigned_label
0  C[C@]12CC[C@H]3[C@@H](CC=C4C[C@@H](N5CCCC5)CC[C@@]43C)[C@@H]1C[C@H](N1CCCCC1)[C@@H]2O        inactive
1    N#Cc1c(Cl)c(C=O)c(=O)n2c1[nH]c1ccccc12        inactive
2             CC1=C(C)C(=O)C2=C(OCCCO2)C1=O        inactive
3          CN(/N=C\c1ccc2ccccc2c1)C1=NCCCN1        inactive
4  CC1=NN=C(N)NC1=CC(Sc1ccc(Cl)cc1)c1c(O)ccc2ccccc12 (configuration not stated)        inactive

Now take the following compound into account.
-- ask Recorded test call requested for Fc1ccc2c(c1)nc1n2C(c2c(F)cccc2F)SC1 (configuration not stated)
-- reply inactive

----------
# Tested on: NCI-H226
# TEST: NCI tumour cell line growth inhibition, 48 h
The source made the active and inactive calls. Cut-off read from the data, not from the text of the source: active = GI50 up to about 1.1 µM and inactive = higher.
MEASURED QUANTITY: GI50

Below, each entry is followed by its recorded GI50 result.
In [3]: df
Out[3]:
                                   compound  target_system            observed
0  COc1ccc(Oc2nc3cc(C(F)(F)F)ccc3nc2C(C)C)cc1       NCI-H226    21 µM (inactive)
1         C=C1CC2(OC1=O)c1ccccc1CCc1ccccc12       NCI-H226  13.2 µM (inactive)

-- ask What value of measured GI50 is listed for C=C(C)[C@@H]1CC[C@@H]2C(=CC[C@]3(C)C([C@H](C)CC/C=C(/C)C(=O)O)CC[C@@]23C)[C@@]1(C)CCC(=O)O (some centres not stated) ?
-- reply 21.3 µM (inactive)

-- ask Here is the next compound: COC(=O)C(CC(=O)Nc1ccc(C)cc1)C(=O)C(=O)Nc1ccccc1C(C)C (configuration not stated)
-- reply > 100 µM (inactive)

-- ask "CCCc1nnc2sc(COc3cc(Cl)c(OCc4nn5c(CCC)nnc5s4)cc3Cl)nn12" , same question.
-- reply > 100 µM (inactive)

-- ask Try this compound too: Cc1c2cnccc2c(C)c2c1c1ccccc1n2CC1CO1 (configuration not stated)
-- reply 1.76 µM (inactive)

-- ask "CCCN(CCC)c1cc2c(cc1F)c(=O)c(C(=O)O)cn2-c1ccc(N2CCN(C)CC2)cn1" , same question.
-- reply 16.7 µM (inactive)

-- ask What about this compound? "COC(=O)Nc1nc2cc(NS(=O)(=O)c3cccs3)ccc2[nH]1"
-- reply 32.2 µM (inactive)

-- ask Also, "O=C(O)CCCc1ccc2c(c1)CC1(C2)Cc2cc3c(cc2C1)CCCC3" please.
-- reply 31.6 µM (inactive)

-- ask Try the compound "Cc1ccnc(NS(=O)(=O)c2ccc(NC3=CC(=O)C(=O)c4ccccc43)cc2)n1"
-- reply > 100 µM (inactive)

-- ask How about this compound: "CS(=O)(=O)c1ccc(NNc2cc(=O)[nH]c(=O)[nH]2)cc1"
-- reply > 100 µM (inactive)

-- ask // repeat for "CCN(c1ccccc1)[C@H]1C(=O)N(c2ccc([N+](=O)[O-])cc2)[C@H]1c1ccc(OC)cc1" and report
-- reply > 100 µM (inactive)

-- ask What about COc1ccc(-c2c(C#N)c(N)n(C3OC(CO)C(O)C(O)C3O)c(=S)c2C#N)cc1 (configuration not stated) ?
-- reply > 100 µM (inactive)

-- ask Quick one: "COC(=O)c1nn2ccc3ccccc3c2c1C(=O)OC"
-- reply > 100 µM (inactive)

-- ask Query "CN(C)CCCOCCn1c2c(c3ccccc31)CCCC2" next
-- reply 29.6 µM (inactive)

-- ask One more compound: CSC1(C)CC2C(CC1N1CCOCC1)C2(C)C (configuration not stated)
-- reply > 100 µM (inactive)

-- ask Then what about the compound "Brc1ccc2c(-c3nc(-c4c[nH]c5ccccc45)cs3)c[nH]c2c1" ?
-- reply 39 µM (inactive)

-- ask Now give it for COc1cccc2c1C(=O)C1=C(C2=O)C(O)CC(C)(C)O1 (configuration not stated) too.
-- reply > 100 µM (inactive)

-- ask Another: O=S(=O)(c1ccccc1)N1CCCC(c2ccccc2)CC1 (configuration not stated)
-- reply 52.7 µM (inactive)

-- ask Next entry: "CCCCc1ccc(Nc2nc(S)c3[nH]cnc3n2)cc1"
-- reply 16.3 µM (inactive)

-- ask Let us now turn to "COc1ccc(OC)c([N+](=O)[O-])c1-c1nc2sc(Cl)cn2c1/C=N/N=C(N)N"
-- reply 18.2 µM (inactive)

----------
# System: DMS-114
# TEST: NCI tumour cell line growth inhibition, 48 h
Active and inactive are the calls of the source. Cut-off read from the data, not from the text of the source: active = GI50 up to about 1.1 µM and inactive = higher.
MEASURED QUANTITY: GI50

Consider the reported GI50 for these molecules:
MOLECULE	TARGET SYSTEM	GI50
CC1(O)CC2C(CC1SCc1ccccc1)C2(C)C (configuration not stated)	DMS-114	14.5 µM (inactive)
COc1ccc(C[C@]23CCC(=O)N2CCc2cc(OC)c(O)cc23)cc1O	DMS-114	> 100 µM (inactive)
CC(=O)c1ccc2c(ccc(=O)n2C)c1	DMS-114	> 100 µM (inactive)
COc1cc(-c2ccc(NC(=O)SCCC(=O)O)cc2OC)ccc1NC(=O)SCCC(=O)O	DMS-114	> 100 µM (inactive)

-- ask So what does the record say about GI50 for "O=[N+]([O-])c1ccc(C[P+]2(c3ccccc3)CCCCC2)cc1.[O-][Cl+3]([O-])([O-])[O-]" ?
-- reply > 100 µM (inactive)

-- ask Would you mind doing CCC(C)C(N)C(=O)NC(CC(N)=O)C(=O)NC(CC(C)C)C(=O)NC(CCCCN)C(=O)NC(C)C(=O)NC(CC(C)C)C(=O)NC(C)C(=O)NC(C)C(=O)NC(CC(C)C)C(=O)NC(C)C(=O)NC(CCCCN)C(=O)NC(CCCCN)C(=O)NC(C(=O)NC(CC(C)C)C(N)=O)C(C)CC (configuration not stated) as well?
-- reply 14.1 µM (inactive)

-- ask Follow-up item: "COC(=O)Cc1c([C@@]2(C)CCCC(C)(C)C2)ccc2c1C(=O)OC2"
-- reply 3.96 µM (inactive)
